Reference for the values: patent US20240101668A1

Answer each item with its documented FACS geometric mean fold change over Jurkat parental.
tested.target: T1, huCD33-G69 stably expressed on Jurkat cells (human, UniProt P20138 18-364)
T1 construct: whole, on cells; >200,000 receptors per cell; also called CD33 Mutant; CD33 R69G
T1 sequence (P20138 18-364 R69G): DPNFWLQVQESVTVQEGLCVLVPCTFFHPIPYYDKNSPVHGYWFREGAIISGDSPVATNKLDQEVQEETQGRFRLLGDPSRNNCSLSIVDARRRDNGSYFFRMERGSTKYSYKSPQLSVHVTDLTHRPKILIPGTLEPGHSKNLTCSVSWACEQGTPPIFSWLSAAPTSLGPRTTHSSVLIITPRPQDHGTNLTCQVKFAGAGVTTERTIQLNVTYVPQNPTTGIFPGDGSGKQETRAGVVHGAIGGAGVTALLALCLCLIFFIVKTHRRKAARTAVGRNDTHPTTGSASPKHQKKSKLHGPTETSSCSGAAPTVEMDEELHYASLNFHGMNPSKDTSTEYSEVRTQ
assay.info: FACS on cells;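 note: fixed Jurkat lines probed with myc-tagged scFv periplasmic extracts, anti-myc PE flow cytometry, PE MFI fold binned − <2, + 2–10, ++ 10–30, +++ >30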

[in] I am curious: what FACS geometric mean fold change over Jurkat parental value has been reported for Polypeptide No. 117 (scFv, V domains shown, scFv) VH: EVQLLESGGGLVQPGGSLRLSCAASGFTFGDYPMSWVRQAPGKGLEWVAGISYDGLNEHYADSVKGRFTISRDNSKNTLYLQMNSLRAEDTAVYYCARDRDSGPSGFQHWGQGTLVTVSS VL: DIQMTQSPSSLSASVGDRVTITCRASQTIGTWLAWYQQKPGKAPKLLIYDASSLESGVPSRFSGSGSGTDFTLTISSLQPEDFATYYCQQSYSTPPTFGQGTKVEIKR ?
[out] 2 to 10 fold

[in] Field entry: Polypeptide No. 98 (scFv, V domains shown, scFv) VH: QVQLVQSGAEVKKPGASVKVSCKASGGSFSSSAINWVRQAPGQGLEWMGWMNPNSGNTGYAQKFQGRVTMTRDTSTSTVYMELSSLRSEDTAVYYCARDRGIAVAGASPYYYYGMDVWGQGTTVTVSS VL: DIQMTQSPSSLSASVGDRVTITCRASQDIGSYLAWYQQKPGKAPKLLIYAASSLQSGVPSRFSGSGSGTDFTLTISSLQPEDFATYYCHQSYSTPFTFGQGTKLEIKR
[out] > 30 fold

[in] Check Polypeptide No. 131 (scFv, V domains shown, scFv) VH: QVQLVQSGAEVKKPGASVKVSCKASGGTFSNYAINWVRQAPGQGLEWMGWINPNSGGTDSAQKFQGRVTMTRDTSTSTVYMELSSLRSEDTAVYYCARDSSLALSYGGNSEYYYGMDVWGQGTTVTVSS VL: DIQMTQSPSSLSASVGDRVTITCQASQDISDHLNWYQQKPGKAPKLLIYGASTLQSGVPSRFSGSGSGTDFTLTISSLQPEDFATYYCQQAYSFPWTFGQGTKLEIKR too.
[out] 10 to 30 fold

[in] Okay, and Polypeptide No. 92 (scFv, V domains shown, scFv) VH: QVQLVQSGAEVKKPGASVKVSCKASGYTFTNHYMHWVRQAPGQGLEWMGIINPSGGSTSYAQKFQGRVTMTRDTSTSTVYMELSSLRSEDTAVYYCASAEVGATHYGMDVWGQGTTVTVSS VL: DIVMTQSPLSLPVTPGEPASISCRSSQSLLHSNGYNYLDWYLQKPGQSPQLLIYAASSLQSGVPDRFSGSGSGTDFTLKISRVEAEDVGVYYCMQALHPPTFGQGTKVEIKR ?
[out] 2 to 10 fold

[in] Same question, Polypeptide No. 121 (scFv, V domains shown, scFv) VH: QVQLVQSGAEVKKPGASVKVSCKASGDSFTDYYIHWVRQAPGQGLEWMGWMNPNSGNTGYAQQFQGRVTMTRDTSTSTVYMELSSLRSEDTAVYYCARDREYSSSSRYFDLWGRGTLVTVSS VL: DIQMTQSPSSLSASVGDRVTITCRASQNIGNWLAWYQQKPGKAPKLLIYAASTLQSGVPSRFSGSGSGTDFTLTISSLQPEDFATYYCQQSYNSITFGPGTKVDIKR this time
[out] 10 to 30 fold
